Data credit: patent US9403832B2

Exercise: for every item that follows, state its recorded IC50.
assaySystem: AAK1 (Homo sapiens, UniProt Q2M2I8)
Construct: NP_055726.2
Sequence (Q2M2I8 1-863 isoform Q2M2I8-2): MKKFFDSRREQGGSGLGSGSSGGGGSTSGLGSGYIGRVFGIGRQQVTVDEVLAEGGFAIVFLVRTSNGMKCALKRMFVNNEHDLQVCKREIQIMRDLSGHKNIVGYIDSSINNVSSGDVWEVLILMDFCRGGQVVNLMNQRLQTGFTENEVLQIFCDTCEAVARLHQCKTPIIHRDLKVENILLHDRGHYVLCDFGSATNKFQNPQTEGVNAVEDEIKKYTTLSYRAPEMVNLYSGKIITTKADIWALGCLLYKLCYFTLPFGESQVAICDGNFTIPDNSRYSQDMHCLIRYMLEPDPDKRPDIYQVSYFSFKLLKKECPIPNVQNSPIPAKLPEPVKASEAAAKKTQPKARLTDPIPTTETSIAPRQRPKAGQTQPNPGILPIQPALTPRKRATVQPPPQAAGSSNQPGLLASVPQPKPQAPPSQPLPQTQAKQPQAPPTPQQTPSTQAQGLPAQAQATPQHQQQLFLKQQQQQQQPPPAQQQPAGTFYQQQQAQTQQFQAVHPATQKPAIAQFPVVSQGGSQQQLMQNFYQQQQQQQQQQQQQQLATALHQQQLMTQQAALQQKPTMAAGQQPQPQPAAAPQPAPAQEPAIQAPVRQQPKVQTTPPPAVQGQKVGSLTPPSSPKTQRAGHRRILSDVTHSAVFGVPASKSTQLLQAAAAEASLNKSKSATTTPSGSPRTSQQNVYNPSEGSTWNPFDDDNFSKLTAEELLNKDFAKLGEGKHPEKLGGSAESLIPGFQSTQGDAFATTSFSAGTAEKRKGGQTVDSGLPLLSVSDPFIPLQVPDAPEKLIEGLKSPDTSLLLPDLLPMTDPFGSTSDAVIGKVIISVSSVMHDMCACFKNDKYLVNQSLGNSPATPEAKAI
measurementDescription: HEK281 cell-based assay (CBA)
experimentalContext: HEK293F cells transfected with full length human AAK1 and AP2M1; phospho-mu2 Western blot; 3 hours incubation

# example entries with known answers
COc1ncccc1-c1cnn2ccc(N3CCN(C(=O)OC4COC4)CC3)nc12 | ≤ 10 nM
CCCOC(=O)N1CCN(c2ccn3ncc(-c4cc(F)cnc4OC)c3n2)CC1 | ≤ 100 nM
CCOC(=O)N1CCN(c2ccn3ncc(-c4cc(C)cnc4OC)c3n2)CC1 | ≤ 100 nM

Would you mind giving IC50 for every compound in the list below?
1. COc1cccc(-c2cnn3ccc(N4CCN(C(=O)OC(C)C)CC4)nc23)n1
2. CCOC(=O)N1CCC[C@H]1CNc1ccn2ncc(-c3ccccc3OC)c2n1
3. CC(C)(C)OC(=O)N1CCC[C@H]1CNc1ccn2ncc(-c3ccc(CN)cc3)c2n1
4. COc1ncc(F)cc1-c1cnn2ccc(N3CCN(C(=O)OC(C)(C)C)CC3)nc12
5. COc1ncccc1-c1cnn2ccc(N3CCN(C(=O)OC(C)(C)C)CC3)nc12
6. COc1ccc(F)cc1-c1cnn2ccc(N3CCN(C(=O)[C@@H](N)C(C)(C)C)CC3)nc12
7. COc1ccc(F)cc1-c1cnn2ccc(N3CCN(C(=O)[C@@H](N)C(C)C)CC3)nc12
8. COCC(C)OC(=O)N1CCN(c2ccn3ncc(-c4cccnc4OC)c3n2)CC1 (centres unmarked)

Output line:
≤ 100 nM
≤ 10 nM
≤ 10 nM
≤ 100 nM
≤ 10 nM
≤ 10 nM
≤ 10 nM
≤ 10 nM

Dear colleague, could you please provide IC50 for the compounds listed below?
1. CC(C)[C@H](N)C(=O)N1CCN(c2ccn3ncc(-c4cccc(F)c4)c3n2)CC1
2. CN[C@H](C(=O)N1CCN(c2ccn3ncc(-c4cccnc4OC)c3n2)CC1)C(C)(C)C
3. COc1ccc(F)cc1-c1cnn2ccc(N3CCN(C(=O)O[C@@H]4CCOC4)CC3)nc12
4. COc1ncccc1-c1cnn2ccc(N3CC[C@H](N(C)C(=O)OC(C)C)C3)nc12
5. COc1ncccc1-c1cnn2ccc(N3CCN(C(=O)[C@@H](N)CC(C)C)CC3)nc12
6. CCOC(=O)N1CCN(c2ccn3ncc(-c4ccc(C)nc4OC)c3n2)CC1

Output line:
≤ 10 nM
≤ 100 nM
≤ 10 nM
≤ 100 nM
≤ 10 nM
≤ 100 nM
